- System: CP265
- TEST_PROTOCOL: qHTS profiling for inhibitors of Plasmodium falciparum proliferation (AID 504749); note: nearly all actives have a fitted effect of over 60% in size
- RUN_PARAMETERS: P. falciparum in erythrocytes, SYBR Green DNA, 72 h; series mostly up to 28.7 µM
Results filed as inconclusive are left out. Active and inactive are the calls of the source. Calls come from the whole dose curve; as a rule, active = well fitted inhibition curve with a large enough effect; inconclusive = small, poorly fitted or top-dose-only effect; inactive = flat fitted curve, though single readings scatter.
Would you mind answering with one of these outcomes? 1 (yes) = active, 0 (no) = inactive

MOLECULE	SYSTEM_NAME	CLASS
CCOC(=O)N1CCC(=C2c3ccc(Cl)cc3CCc3cccnc32)CC1	CP265	1 (yes)
NNCCc1ccccc1	CP265	0 (no)
Oc1ccc(C2CNCCc3c2cc(O)c(O)c3Cl)cc1 (stereo unspecified)	CP265	0 (no)
NS(=O)(=O)c1cc2c(cc1Cl)NC=NS2(=O)=O	CP265	0 (no)
N#Cc1ccc(C(c2ccc(C#N)cc2)n2cncn2)cc1	CP265	0 (no)
Clc1ccc(Nc2nnc(Cc3ccncc3)c3ccccc23)cc1	CP265	0 (no)
CC(=O)Oc1ccccc1C(=O)O	CP265	0 (no)
NC[C@H](O)c1ccc(O)c(O)c1	CP265	0 (no)

Kindly provide the recorded test outcome for the following molecule: "Cc1ccc(N(CC2=NCCN2)c2cccc(O)c2)cc1"
0 (no)

Kindly provide the recorded test outcome for the following molecule: "Cc1[nH]c(=O)c(C#N)cc1-c1ccncc1"
0 (no)

Kindly provide the recorded test outcome for the following molecule: "CNC[C@H](O)c1cccc(O)c1"
0 (no)

----------
- Tested on: Zika virus NS2B-NS3 protease (unlinked complex)
- TEST_PROTOCOL: Primary screen GU Rhodamine qHTS for Zika virus inhibitors: Unlinked NS2B-NS3 protease assay (AID 1347159); note: nearly all actives have a fitted effect of over 60% in size
- RUN_PARAMETERS: Recombinant ZIKV NS2B-NS3 protease, Rhodamine110 substrate fluorescence; series mostly up to 107 µM
Results filed as inconclusive are left out. Calls of active or inactive are those of the source. Calls follow the shape of the dose curve; as a rule, active = well fitted inhibition curve with a large enough effect; inconclusive = small, poorly fitted or top-dose-only effect; inactive = no such curve, though single readings can be large or run the other way.
Would you mind answering with one of these outcomes? active, inactive

Study these solved cases before continuing.
COMPOUND	CLASS
CN(C)c1ccc(Nc2nc(N)n(C(=O)c3c(F)cccc3F)n2)cc1	inactive
Cc1cc(Nc2nc(N[C@@H](C)c3ncc(F)cn3)ncc2Cl)n[nH]1	inactive
N#CC[C@H](C1CCCC1)n1cc(-c2ncnc3[nH]ccc23)cn1	inactive
CS(=O)(=O)c1ccc(C(=O)Nc2ccc(Cl)c(-c3ccccn3)c2)c(Cl)c1	inactive
CN(C)C(=O)c1ccc(S(=O)(=O)c2ccc(NC(=O)[C@@](C)(O)C(F)(F)F)c(Cl)c2)cc1	inactive

Kindly provide the recorded test outcome for the following compound: "CCc1cc(Nc2nccc(-c3c(-c4ccc(OC)c(C(=O)Nc5c(F)cccc5F)c4)nc4ccccn34)n2)c(OC)cc1N1CCC(N2CCN(S(C)(=O)=O)CC2)CC1"
inactive

Kindly provide the recorded test outcome for the following compound: "Cn1cnc2c(F)c(Nc3ccc(Br)cc3Cl)c(C(=O)NOCCO)cc21"
inactive

Kindly provide the recorded test outcome for the following compound: CCC(C)n1ncn(-c2ccc(N3CCN(c4ccc(OC[C@H]5CO[C@](Cn6cncn6)(c6ccc(Cl)cc6Cl)O5)cc4)CC3)cc2)c1=O (some centres undefined)
inactive

----------
- TEST_PROTOCOL: Quantitative high throughput screen for delayed death inhibitors of the malarial parasite plastid, 96 hour incubation (AID 488745); note: nearly all actives have a fitted effect of over 70% in size
- RUN_PARAMETERS: Plasmodium falciparum growth; series mostly up to 28.7 µM
- Excerpt: NIH Molecular Libraries Probe Production Network [MLPCN] NIH Chemical Genomics Center [NCGC] Assay Provider: David Fidock and Eric Ekland, Columbia University […] We have developed a cell-based assay that measures parasite growth based on the expression of an integrated copy of a firefly luciferase reporter. […] Growth inhibition is detected by a decrease in luciferase activity […]
Records with an inconclusive call do not appear. Active and inactive are the calls of the source. The call rests on the fitted dose curve; in most records, active means well fitted inhibition curve with a large enough effect; inconclusive means small, poorly fitted or top-dose-only effect, or effect the other way; inactive means no such curve, though single readings can be large or run the other way.
Would you mind answering with one of these outcomes? active, inactive

COMPOUND	CLASS
Cn1cnc([N+](=O)[O-])c1Sc1ncnc2nc[nH]c12	inactive
O=NN(CCCl)C(=O)NCCCl	inactive
Nc1nc2c(ncn2COCCO)c(=O)[nH]1	inactive
O=C1CCc2cc(OCCCCc3nnnn3C3CCCCC3)ccc2N1	inactive
O=c1[nH]cnc2[nH]ncc12	inactive
NS(=O)(=O)c1cc2c(cc1Cl)NC=NS2(=O)=O	inactive
Cc1cn[nH]c1	inactive
CCN(CC)CCCC(C)Nc1ccnc2cc(Cl)ccc12 (centres undefined)	active

Kindly consider the entry below.
Kindly provide the recorded test outcome for the following compound: "NCCc1ccc(O)c(O)c1"
inactive

Cited source: PubChem BioAssay (NCATS)
